Test system: beta amyloid production
Test: Repressor Release Assay (RRA)
Assay type: cell-based
Conditions: Conc 20 μg/ml; luciferase activity (RLU) over diluent control; read-out: APPI Fold Increase
Some compounds, each annotated with its measured fold induction at 20 µg/mL.
Quantity: fold induction at 20 µg/mL

>  <Compound>
C[C@@H](c1ccco1)[C@@H](CO)NS(=O)(=O)c1ccc(Br)cc1 [Example 84]

>  <Test value>
3.4

$$$$
>  <Compound>
CCCCCC[C@@H](C(C)C)[C@@H](CO)NS(=O)(=O)c1ccc(Cl)cc1 [Example 70]

>  <Test value>
2

$$$$
>  <Compound>
CCCCCC[C@@H](c1ccco1)[C@@H](CO)NS(=O)(=O)c1ccc(Cl)cc1 [Example 68]

>  <Test value>
2

$$$$
>  <Compound>
CCC[C@H](C)[C@@H](CO)NS(=O)(=O)c1ccc(Cl)cc1 [Example 54]

>  <Test value>
5

$$$$
>  <Compound>
CC(C)C[C@@H](C(C)C)[C@@H](CO)NS(=O)(=O)c1ccc(Br)cc1 [Example 87]

>  <Test value>
8.8

$$$$
>  <Compound>
CCCCC[C@H](CC)[C@@H](CO)NS(=O)(=O)c1ccc(Cl)cc1 [Example 61]

>  <Test value>
6.5

$$$$
>  <Compound>
CCC(CC)[C@@H](CO)NS(=O)(=O)c1ccc(Cl)cc1 [Example 52]

>  <Test value>
6.2

$$$$
>  <Compound>
CCC[C@H](CC)[C@@H](CO)NS(=O)(=O)c1ccc(Cl)cc1 [Example 55]

>  <Test value>
5.6

$$$$
>  <Compound>
CCC[C@H](c1ccc(OC)cc1)[C@@H](CO)NS(=O)(=O)c1ccc(Cl)cc1 [Example 57]

>  <Test value>
1.7

$$$$
>  <Compound>
CC[C@H](CC(C)C)[C@@H](CO)NS(=O)(=O)c1ccc(Br)cc1 [Example 73]

>  <Test value>
5.4

$$$$
>  <Compound>
CC(C)C[C@@H](c1ccco1)[C@@H](CO)NS(=O)(=O)c1ccc(Cl)cc1 [Example 67]

>  <Test value>
3.9

$$$$
>  <Compound>
CCCCCC[C@@H](CC)[C@@H](CO)NS(=O)(=O)c1ccc(Br)cc1 [Example 75]

>  <Test value>
4.8

$$$$
>  <Compound>
C[C@@H](c1ccccc1)[C@@H](CO)NS(=O)(=O)c1ccc(Br)cc1 [Example 82]

>  <Test value>
2.6

$$$$
>  <Compound>
CCCCCC[C@@H](CCC)[C@@H](CO)NS(=O)(=O)c1ccc(Br)cc1 [Example 79]

>  <Test value>
1.5

$$$$
>  <Compound>
CCCCC[C@H](C)[C@@H](CO)NS(=O)(=O)c1ccc(Cl)cc1 [Example 60]

>  <Test value>
4.6

$$$$
>  <Compound>
CCC[C@H](c1ccccc1)[C@@H](CO)NS(=O)(=O)c1ccc(Cl)cc1 [Example 59]

>  <Test value>
3.2

$$$$
>  <Compound>
C[C@@H](c1ccccc1)[C@@H](CO)NS(=O)(=O)c1ccc(Cl)cc1 [Example 63]

>  <Test value>
2

$$$$
>  <Compound>
CC(C)C[C@@H](c1ccco1)[C@@H](CO)NS(=O)(=O)c1ccc(Br)cc1 [Example 86]

>  <Test value>
1.6

$$$$

----------
Some compounds, each annotated with its measured (%)APPI Toxicity.
Test system: CHO-K1 cells
Test: Toxicity in RRA (loss of luciferase signal)
Details: Conc 20 μg/ml; toxicity = loss of signal (<0.75 fold increase)
Quantity: (%)APPI Toxicity

>  <Compound>
CC[C@H](C)[C@@H](CO)NS(=O)(=O)c1ccc(Br)c(Br)c1 [Example 22]

>  <Quantity>
(%)APPI Toxicity

>  <Test value>
1 (1=non-toxic)

$$$$
>  <Compound>
C=CCCC(O)(CCC=C)[C@@H](NS(=O)(=O)c1ccc(F)cc1)[C@@H](C)CC [Example 246]

>  <Quantity>
(%)APPI Toxicity

>  <Test value>
1 (1=non-toxic)

$$$$
>  <Compound>
CC[C@@H](C)[C@H](CO)NS(=O)(=O)c1ccc(Br)cc1 [Example 33]

>  <Quantity>
(%)APPI Toxicity

>  <Test value>
1 (1=non-toxic)

$$$$
>  <Compound>
C/C=C(\C)C(O)(/C(C)=C/C)[C@@H](NS(=O)(=O)c1ccc(F)cc1)[C@@H](C)CC (stereo partly drawn) [Example 245]

>  <Quantity>
(%)APPI Toxicity

>  <Test value>
1 (1=non-toxic)

$$$$
>  <Compound>
O=S(=O)(N[C@@H](CO)c1ccc(O)cc1)c1ccc(Br)cc1 [Example 17]

>  <Quantity>
(%)APPI Toxicity

>  <Test value>
1 (1=non-toxic)

$$$$
>  <Compound>
O=S(=O)(NC1(CO)CCCCC1)c1ccc(Cl)cc1 [Example 123]

>  <Quantity>
(%)APPI Toxicity

>  <Test value>
1 (1=non-toxic)

$$$$
>  <Compound>
O=S(=O)(N[C@H](CO)c1ccccc1)c1ccc(Br)cc1 [Example 101]

>  <Quantity>
(%)APPI Toxicity

>  <Test value>
1 (1=non-toxic)

$$$$
>  <Compound>
CC(C)[C@@H](CO)NS(=O)(=O)c1c(Cl)cc(Cl)cc1Cl [Example 28]

>  <Quantity>
(%)APPI Toxicity

>  <Test value>
1 (1=non-toxic)

$$$$
>  <Compound>
CC[C@H](C)[C@@H](CO)NS(=O)(=O)c1cccc(Br)c1 [Example 2]

>  <Quantity>
(%)APPI Toxicity

>  <Test value>
1 (1=non-toxic)

$$$$

----------
Some compounds, each annotated with its measured (%)APPI Toxicity.
Tested on: CHO-K1 cells
Experiment: Toxicity in RRA (loss of luciferase signal)
Conditions: Conc 20 μg/ml; 1=non-toxic, 0=toxic; toxicity = loss of signal (<0.75 fold increase)
Quantity: (%)APPI Toxicity

>  <Smi>
CCCCCC[C@@H](CCC)[C@@H](CO)NS(=O)(=O)c1ccc(Br)cc1

>  <Test value>
1 (1=non-toxic)

$$$$
>  <Smi>
CC[C@@H](c1ccccc1)[C@@H](CO)NS(=O)(=O)c1ccc(Br)cc1

>  <Test value>
1 (1=non-toxic)

$$$$
>  <Smi>
C[C@@H](c1ccccc1)[C@@H](CO)NS(=O)(=O)c1ccc(Br)cc1

>  <Test value>
1 (1=non-toxic)

$$$$
>  <Smi>
CC[C@@H](c1ccco1)[C@@H](CO)NS(=O)(=O)c1ccc(Cl)cc1

>  <Test value>
1 (1=non-toxic)

$$$$
>  <Smi>
C[C@H](c1ccccc1)[C@@H](CO)NS(=O)(=O)c1ccc(Cl)cc1

>  <Test value>
1 (1=non-toxic)

$$$$
>  <Smi>
CC(C)C[C@@H](c1ccccc1)[C@@H](CO)NS(=O)(=O)c1ccc(Cl)cc1

>  <Test value>
1 (1=non-toxic)

$$$$
>  <Smi>
CCC[C@H](c1ccc(OC)cc1)[C@@H](CO)NS(=O)(=O)c1ccc(Cl)cc1

>  <Test value>
1 (1=non-toxic)

$$$$
>  <Smi>
CC[C@H](CC(C)C)[C@@H](CO)NS(=O)(=O)c1ccc(Br)cc1

>  <Test value>
1 (1=non-toxic)

$$$$
>  <Smi>
CCC[C@H](C)[C@@H](CO)NS(=O)(=O)c1ccc(Cl)cc1

>  <Test value>
1 (1=non-toxic)

$$$$

----------
Tested on: beta amyloid production
Test: Repressor Release Assay (RRA)
Format: cell-based
Settings: Conc 20 μg/ml; luciferase activity over diluent control; read-out: APPI Fold Increase

>  <Smi>
CCCCCC[C@@H](C)[C@@H](CO)NS(=O)(=O)c1ccc(Cl)cc1

>  <fold induction at 20 µg/mL>
2.5

$$$$
>  <Smi>
CC[C@](C)(CO)NS(=O)(=O)c1ccc(Cl)cc1

>  <fold induction at 20 µg/mL>
1.5

$$$$
>  <Smi>
CC(C)[C@@H](CO)NS(=O)(=O)c1ccc(Br)cc1

>  <fold induction at 20 µg/mL>
2

$$$$
>  <Smi>
CC(C)[C@@H](CO)NS(=O)(=O)c1c(Cl)cc(Cl)cc1Cl

>  <fold induction at 20 µg/mL>
1.5

$$$$
>  <Smi>
O=S(=O)(N[C@H](CO)Cc1ccccc1)c1ccccc1F

>  <fold induction at 20 µg/mL>
1.6

$$$$
>  <Smi>
CC[C@H](C)[C@@H](CO)NS(=O)(=O)c1cccc2ccccc12

>  <fold induction at 20 µg/mL>
2.9

$$$$
>  <Smi>
O=S(=O)(N[C@H](CO)C1CCCCC1)c1ccc(Cl)cc1

>  <fold induction at 20 µg/mL>
2.3

$$$$
>  <Smi>
C=CCCC(O)(CCC=C)[C@@H](NS(=O)(=O)c1ccc(F)cc1)[C@@H](C)CC

>  <fold induction at 20 µg/mL>
1.9

$$$$
>  <Smi>
CC[C@H](C)[C@@H](CO)NS(=O)(=O)c1cc(F)c(Br)cc1F

>  <fold induction at 20 µg/mL>
3.3

$$$$
